# SYSTEM NAME: LHRH (Rattus norvegicus)
# Construct: endogenous in cells; host or cells: pituitary cells (own knowledge of the cited method)
# Sequence (P30969 whole entry): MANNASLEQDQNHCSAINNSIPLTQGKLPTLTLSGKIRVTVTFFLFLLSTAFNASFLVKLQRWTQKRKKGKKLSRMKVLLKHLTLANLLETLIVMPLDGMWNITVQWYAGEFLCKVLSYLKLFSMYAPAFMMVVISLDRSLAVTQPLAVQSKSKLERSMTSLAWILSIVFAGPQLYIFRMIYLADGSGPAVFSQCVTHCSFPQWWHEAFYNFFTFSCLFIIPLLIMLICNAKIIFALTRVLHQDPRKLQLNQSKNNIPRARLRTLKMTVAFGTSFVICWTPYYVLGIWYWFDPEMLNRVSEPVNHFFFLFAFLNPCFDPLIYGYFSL
# METHOD DESCRIPTION: in vitro test for LHRH antagonist potency (pA2), shift of the leuprolide response curve
# Format: cell-based
# PROTOCOL CONDITIONS: negative logarithm of antagonist concentration required to shift the response curve produced by the agonist leuprolide to two-fold higher concentration
Where a SMILES comes first, the peptide text is derived from it. Bridges are numbered along the chain shown (N, C = ends). [ ]: non-standard residue; d: D form. The star is where a group is joined. Propanoyl(3-(4-Cl-Ph)) = O=C(CCc1ccc(Cl)cc1)*; Lys(iPr) = CC(C)NCCCC[C@H](N)C(=O)O; NMeY = CN[C@@H](Cc1ccc(O)cc1)C(=O)O; Nicotinoyl = O=C(c1cccnc1)*
PROPERTY NAME: Kb (nM)
Just the number in nM, nothing appended.

// solved cases for Kb follow
[[record]]
molecule = "CC(=O)N[C@@H]1CCCCNC(=O)CC[C@H](C(N)=O)NC(=O)[C@@H]2CCCN2C(=O)[C@H](CCCCNC(C)C)NC(=O)[C@H](CC(C)C)NC(=O)[C@@H](CCCCNC(=O)c2cccnc2)NC(=O)[C@H](Cc2ccc(O)cc2)N(C)C(=O)[C@H](CO)NC1=O [Example 9] (Ac-[dK]S[NMeY][dK](Nicotinoyl)L[Lys(iPr)]P[dE]-NH2; lactam 1-8)"
measurement = 6.17

[[record]]
molecule = "CC(=O)N[C@@H]1CCC(=O)NCCCC[C@H](C(N)=O)NC(=O)[C@@H]2CCCN2C(=O)[C@H](CCCCNC(C)C)NC(=O)[C@H](CC(C)C)NC(=O)[C@@H](CCCCNC(=O)c2cccnc2)NC(=O)[C@H](Cc2ccc(O)cc2)N(C)C(=O)[C@H](CO)NC1=O [Example 11] (Ac-[dE]S[NMeY][dK](Nicotinoyl)L[Lys(iPr)]P[dK]-NH2; lactam 1-8)"
measurement = 20.4


Consider now this further molecule.
-- ask Please give measured Kb of the following entry: CC(C)C[C@@H]1NC(=O)[C@@H](CCCCNC(=O)c2cccnc2)NC(=O)[C@H](Cc2ccc(O)cc2)N(C)C(=O)[C@H](CO)NC(=O)[C@H](NC(=O)CCc2ccc(Cl)cc2)CCCCNC(=O)CC[C@H](C(N)=O)NC(=O)CNC(=O)[C@H](CCCCNC(C)C)NC1=O [Example 16] ({Propanoyl(3-(4-Cl-Ph))}-[dK]S[NMeY][dK](Nicotinoyl)L[Lys(iPr)]G[dE]-NH2; lactam 1-8)
-- reply 40.7
